Assay: self-splicing fitness, log relative to wild type (ln ratio); higher = more splicing; Tetrahymena group I intron in knt gene, E. coli kanamycin selection, DiMSum; sequences stand for … in CUCUCU…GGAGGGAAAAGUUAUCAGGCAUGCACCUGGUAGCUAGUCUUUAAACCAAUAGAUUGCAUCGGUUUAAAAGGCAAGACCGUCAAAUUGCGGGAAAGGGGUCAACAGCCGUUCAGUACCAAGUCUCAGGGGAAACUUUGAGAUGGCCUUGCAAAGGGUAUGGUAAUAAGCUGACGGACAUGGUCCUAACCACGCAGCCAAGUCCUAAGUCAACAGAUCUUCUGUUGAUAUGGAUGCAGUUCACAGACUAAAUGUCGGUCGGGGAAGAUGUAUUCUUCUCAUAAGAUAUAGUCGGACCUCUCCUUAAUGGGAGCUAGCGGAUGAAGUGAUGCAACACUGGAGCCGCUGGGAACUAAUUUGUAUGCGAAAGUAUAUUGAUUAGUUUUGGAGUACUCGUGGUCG;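 note: selection with 25 µg/mL kanamycin versus none on LB agar overnight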
Details: 30 °C
just bin them by self-splicing fitness (ln): group 1: < -3; group 2: ≥ -3 and < -2; group 3: ≥ -2

Q. Which band does GUAUAGCAAUAUUACGGUGC fall in?
A. group 2

Q. Which band does UGCCAGCAAUAUUACGACGA fall in?
A. group 3

Q. Which band does UGUUAGCAAUAUUACGUAGG fall in?
A. group 2

Q. Which band does GUCAAGCAAUAUUACGCGUU fall in?
A. group 2

Q. Which band does UUCCAGCAAUAUUACGUCUU fall in?
A. group 2

Q. Which band does UGCCAGCAAUAUUACGAAGA fall in?
A. group 2

Q. Which band does CCAUAGCAAUAUUACGUGUU fall in?
A. group 1

Q. Which band does UGCAAGCAAUAUUACGCCAA fall in?
A. group 3

Further cases:
Q. Which band does UUGCAGCAAUAUUACGCGGG fall in?
A. group 1

Q. Which band does AGGGAGCAAUAUUACGCCGU fall in?
A. group 2

Q. Which band does UGUCAGCAAUAUUACGGGUC fall in?
A. group 1

Q. Which band does AGACAGCAAUAUUACGACAA fall in?
A. group 3

Q. Which band does CUGGAGCAAUAUUACGGAAC fall in?
A. group 1

Q. Which band does AUCGAGCAAUAUUACGCUAG fall in?
A. group 1
